Target: full-length beta-Catenin (Uniprot ID P35222) (Homo sapiens, UniProt P35222)
Construct: 10 nM full-length beta-Catenin (Uniprot ID P35222)
Sequence (P35222 1-781): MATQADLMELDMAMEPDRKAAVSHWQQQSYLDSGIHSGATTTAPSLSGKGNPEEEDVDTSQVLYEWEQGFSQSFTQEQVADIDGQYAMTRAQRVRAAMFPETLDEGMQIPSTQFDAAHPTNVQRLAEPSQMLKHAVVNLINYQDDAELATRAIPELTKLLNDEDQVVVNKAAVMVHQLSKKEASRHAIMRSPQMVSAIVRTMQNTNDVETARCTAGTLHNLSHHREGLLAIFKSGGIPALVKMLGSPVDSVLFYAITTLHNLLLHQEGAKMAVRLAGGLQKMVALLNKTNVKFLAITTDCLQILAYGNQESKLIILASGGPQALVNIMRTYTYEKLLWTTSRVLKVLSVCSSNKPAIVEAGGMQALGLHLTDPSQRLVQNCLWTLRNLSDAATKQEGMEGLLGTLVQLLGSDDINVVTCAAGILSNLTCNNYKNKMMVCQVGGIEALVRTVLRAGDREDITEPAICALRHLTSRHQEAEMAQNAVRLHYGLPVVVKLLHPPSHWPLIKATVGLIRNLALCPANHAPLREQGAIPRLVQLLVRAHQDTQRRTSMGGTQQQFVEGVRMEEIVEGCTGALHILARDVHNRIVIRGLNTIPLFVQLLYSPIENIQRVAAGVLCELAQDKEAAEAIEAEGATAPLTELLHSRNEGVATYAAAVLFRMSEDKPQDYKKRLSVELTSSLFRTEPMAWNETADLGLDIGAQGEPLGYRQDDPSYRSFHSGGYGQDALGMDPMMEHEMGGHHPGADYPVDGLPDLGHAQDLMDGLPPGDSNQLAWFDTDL
Experiment: Fluorescence polarization IC50 (beta-catenin / 5FAM-TCF4 10-53 competition)
Type: binding
Settings: fluorescence polarization; read-out: beta-Catenin FP IC50
pIC50: −log10 of the molar value.
Binary call on pIC50: true (1) from 7 upward, false (0) beneath that.

molecule="CC(=O)N1CCC[C@]12CC=CCCCC1(CCCC=CCCCOC(=O)N3CC[C@@](C(=O)N[C@@H](Cc4ccsc4)C(=O)N[C@@H](Cc4csc5ccccc45)C(=O)N[C@@H](Cc4ccc(O)cc4)C(N)=O)(C3)NC(=O)[C@H](CC(N)=O)NC(=O)[C@H](Cc3ccccc3)NC(=O)[C@H](C)NC(=O)C(C)(C)NC(=O)[C@H]([C@@H](C)O)NC(=O)[C@H](CC(N)=O)NC1=O)NC(=O)[C@H](CC(C)(C)C)NC(=O)[C@H](CC(=O)O)NC2=O (stereo partly drawn)" assay_target="full-length beta-Catenin (Uniprot ID P35222) (Homo sapiens, UniProt P35222)" label_value="false (0)"
molecule="CC(=O)N1CCC[C@]12CC=CCCCCC1(CCCCC=CCCOC(=O)N3CC[C@@](C(=O)N[C@@H](Cc4ccccc4C(F)(F)F)C(=O)N[C@@H](Cc4csc5ccccc45)C(=O)N[C@@H](CCC(N)=O)C(N)=O)(C3)NC(=O)[C@H](CC(C)C)NC(=O)[C@H](Cc3ccccc3)NC(=O)[C@H](C)NC(=O)[C@H](C)NC(=O)[C@H](Cc3cccc(C(=O)O)c3)NC(=O)[C@H](CC(=O)O)NC1=O)NC(=O)[C@H](CC(C)(C)C)NC(=O)[C@H](CC(=O)O)NC2=O (stereo partly drawn) [I-2509]" assay_target="full-length beta-Catenin (Uniprot ID P35222) (Homo sapiens, UniProt P35222)" label_value="true (1)"
molecule="CC(=O)N1CCC[C@]12CC=CCCCC1(CCCC=CCCCOC(=O)N3CC[C@@](C(=O)N[C@@H](Cc4ccccc4C(F)(F)F)C(=O)N[C@@H](Cc4csc5ccccc45)C(=O)N[C@@H](CCC(=O)N(C)C)C(N)=O)(C3)NC(=O)[C@H](CCC(=O)N(C)C)NC(=O)[C@H](Cc3ccccc3)NC(=O)[C@H](C)NC(=O)[C@H](C)NC(=O)[C@H](Cc3cccc(C(=O)O)c3)NC(=O)[C@H](CC(=O)O)NC1=O)NC(=O)[C@H](CC(C)(C)C)NC(=O)[C@H](CC(=O)O)NC2=O (stereo partly drawn) [I-2536]" assay_target="full-length beta-Catenin (Uniprot ID P35222) (Homo sapiens, UniProt P35222)" label_value="true (1)"
molecule="COc1cccc(C[C@@H]2NC(=O)[C@H](C)NC(=O)[C@H](CCCCNC(C)C)NC(=O)[C@H](CCC(N)=O)NC(=O)[C@H](CC(=O)O)NC(=O)C3(CCCC=CCCCOC(=O)N4CC[C@@](C(=O)N[C@@H](Cc5ccccc5)C(=O)N[C@@H](Cc5csc6ccccc56)C(=O)N[C@@H](CCO)C(N)=O)(C4)NC(=O)[C@H](CC(N)=O)NC2=O)CCCC=CC[C@]2(CCCN2C(C)=O)C(=O)N[C@@H](CC(N)=O)C(=O)N[C@@H](CC2CCCCC2)C(=O)N3)c1 (stereo partly drawn)" assay_target="full-length beta-Catenin (Uniprot ID P35222) (Homo sapiens, UniProt P35222)" label_value="false (0)"
molecule="CC(=O)N1CCC[C@]12CC=CCCCC1(CCCC=CCCCOC(=O)N3CC[C@@](C(=O)N[C@@H](Cc4ccsc4)C(=O)N[C@@H](Cc4c[nH]c5cccc(F)c45)C(=O)N[C@@H](CCC(N)=O)C(N)=O)(C3)NC(=O)[C@H](CC(N)=O)NC(=O)[C@H](Cc3ccccc3)NC(=O)[C@H](C)NC(=O)[C@H](C)NC(=O)[C@H](CC(=O)O)NC(=O)[C@H](CC(=O)O)NC1=O)NC(=O)[C@H](CC(C)(C)C)NC(=O)[C@H](CC(=O)O)NC2=O (stereo partly drawn)" assay_target="full-length beta-Catenin (Uniprot ID P35222) (Homo sapiens, UniProt P35222)" label_value="true (1)"
molecule="CCCC[C@@H]1NC(=O)[C@H](CC(=O)O)NC(=O)[C@]2(CC=CCCCC3(CCCC=CCCCOC(=O)N4CC[C@@](C(=O)N[C@@H](Cc5ccsc5)C(=O)N[C@@H](Cc5csc6ccccc56)C(=O)N[C@@H](CCC(N)=O)C(N)=O)(C4)NC(=O)[C@H](CCCC)NC(=O)[C@H](Cc4ccccc4)NC(=O)[C@H](C)NC(=O)[C@H](C)NC(=O)[C@H](Cc4cccc(C(=O)O)c4)NC(=O)[C@H](CC(=O)O)NC3=O)NC1=O)CCCN2C(C)=O (stereo partly drawn)" assay_target="full-length beta-Catenin (Uniprot ID P35222) (Homo sapiens, UniProt P35222)" label_value="true (1)"
molecule="CC(=O)N1CCC[C@]12CC=CCCCC1(CCCC=CCCCOC(=O)N3CC[C@@](C(=O)N[C@@H](Cc4ccsc4)C(=O)N[C@@H](Cc4ccc(Cl)c(Cl)c4)C(=O)N[C@@H](CCC(N)=O)C(N)=O)(C3)NC(=O)[C@H](CC(C)C)NC(=O)[C@H](Cc3ccccc3)NC(=O)[C@H](C)NC(=O)[C@H](C)NC(=O)[C@H](Cc3cccc(C(=O)O)c3)NC(=O)[C@H](CC(=O)O)NC1=O)NC(=O)[C@H](CC(C)(C)C)NC(=O)[C@H](CC(=O)O)NC2=O (stereo partly drawn)" assay_target="full-length beta-Catenin (Uniprot ID P35222) (Homo sapiens, UniProt P35222)" label_value="true (1)"

Values were extracted from patent US20240116985A1.
